- Test system: PKB Ser473 phosphorylation in Rat1-myr-HA-p110 alpha cells
- PROTOCOL_NOTES: Reverse protein array assay, PKB Ser473 phosphorylation in Rat1-myr-p110 alpha cells
- Format: cell-based
- CONDITIONS_USED: 0.5 h, pAkt Ser473, 30 minutes compound incubation, read-out: p-PKB IC50
QUANTITY: IC50

Reference set (2 entries):
1) CNc1cc(-c2ccc3ncc4c(c3c2)n(-c2cn(C)nc2Cl)c(=O)n4C)cnc1COC ... < 5 nM
2) CCNc1cc(-c2ccc3ncc4c(c3c2)n(-c2cn(C)nc2Cl)c(=O)n4C)cnc1OC ... < 5 nM

Moving on to another molecule below.
Output measured IC50 for this item: CCn1cc(-n2c(=O)n(C)c3cnc4ccc(-c5cncc(NC)c5)cc4c32)c(C)n1 < 5 nM

====

Known log10(solubility) of a selection of compounds
- PROTOCOL_NOTES: Solubility at pH 6.8
- Format: physicochemical
- CONDITIONS_USED: pH 6.8, aqueous buffer, thermodynamic from solid; read-out: solubility
On a log10 scale: recorded solubility, unit µg/mL.

Output measured log10(solubility) for this item: CCOc1ncc(-c2ccc3ncc4c(c3c2)n(-c2cn(C)nc2C)c(=O)n4C)cn1 1.04

====

- Test system: PKB Ser473 phosphorylation in Rat1-myr-HA-p110 alpha cells
- PROTOCOL_NOTES: Reverse protein array assay, PKB Ser473 phosphorylation in Rat1-myr-p110 alpha cells
- Type: cell-based
- CONDITIONS_USED: 0.5 h, pAkt Ser473, 30 minutes compound incubation, read-out: p-PKB IC50
QUANTITY: pIC50
Entry type: numeric. Quantity: pIC50, the -log10 of concentration in molar units.

Reference set (6 entries):
1. Cc1nn(C)cc1-n1c(=O)n(C)c2cnc3ccc(-c4ccc(-c5ncc[nH]5)cc4)cc3c21 ... 8.15
2. Cc1nn(C(C)C)cc1-n1c(=O)n(C)c2cnc3ccc(-c4ccc(CO)nc4)cc3c21 ... 7.17
3. CCNc1cc(-c2ccc3ncc4c(c3c2)n(-c2c(C)nn(C)c2C)c(=O)n4C)cnc1F ... 6.99
4. Cc1c(-n2c(=O)n(C)c3cnc4ccc(-c5ccc(N(C)C)nc5)cc4c32)cnn1C ... 7.28
5. COCc1ncc(-c2ccc3ncc4c(c3c2)n(-c2cn(C)nc2C)c(=O)n4C)cc1OC(C)C ... 7.85
6. COc1ccc(-c2ccc3ncc4[nH]c(=O)n(-c5cn(C)nc5C)c4c3c2)cc1OC ... 8.00

Moving on to another compound below.
Output measured pIC50 for this item: Cc1nn(C(C)C)cc1-n1c(=O)n(C)c2cnc3ccc(-c4ccc(N5CCC5)nc4)cc3c21 7.85

====

- PROTOCOL_NOTES: Solubility at pH 6.8
- Assay type: physicochemical
- CONDITIONS_USED: pH 6.8, aqueous buffer, thermodynamic from solid; read-out: solubility
Known solubility of a selection of compounds
Just the number please, in µg/mL, no unit attached.

1) CN(C)c1ccc(-c2ccc3ncc4c(c3c2)n(-c2ccnn2C)c(=O)n4C)cn1 ... 3
2) CNc1ccc(-c2ccc3ncc4c(c3c2)n(-c2cn(CC(=O)N(C)C)nc2C)c(=O)n4C)cn1 ... 21

Moving on to another compound below.
Output measured solubility for this item: CCn1cc(-n2c(=O)n(C)c3cnc4ccc(-c5cncc(N)c5)cc4c32)c(C)n1 10
